Catalogue of binders with associated kon
Target: T1, RSV-F.mmh (Respiratory Syncytial Virus)
T1 construct: also called recombinant RSV-F; soluble monomeric RSV-F
Test: SPR (Biacore), mAb captured via Fc, soluble RSV-F.mmh injected, 25 C
Field format: number, assumed M⁻¹ s⁻¹, no unit text.

In the examples that follow, each entry is paired with its recorded kon.
binder	endpoint-unit	kon
H1H3583P (antibody, V domains shown) VH: QVQLVQSGAEVKKSGSSVKVSCKASGGTFSSYAISWVRQAPGQGLEWMGGIIPIFGTGNYAQKFQGRVTITTDESTSTAYMELSSLRSEDTAVYYCARDSSSSPRYYGMDVWGHGTTVTVSS VL: EIVLTQSPATLSLSPGERATLSCRASQSVTSYLAWYQQKPGQAPRLLIYDVSKRATGIPARFSGSGSGTDFTLTISSLEPEDFATYYCQQRSNWPPTFGQGTRLEIK	M⁻¹ s⁻¹	89400
H1H3589P (antibody, V domains shown) VH: EVQLVESGGGLVQPGGSLRLSCEASGFTFSTYWMSWVRQAPGKGLEWVANIKQDGSVKYFVDSVKGRFTVSRDNAKNSLYLQMNSLRAEDTALYHCARERHRGSYYGYYDGMDVWGQGTTVTVSS VL: DIQMTQSPSSLSASVGDRVTITCRASQNIDIYLNWYQERPGKAPNLLIYAASSLQSGVPSRFSGSGSGTDFTLTISSLQPEDFATYYCQQSYNTPFTFGGGTKVEIK	M⁻¹ s⁻¹	37700

Alright, here's another binder for you.
Request: Bench note: what kon did H1H3608P2 (antibody, V domains shown) VH: QVQLVESGGGVVQPGRSLRLSCAASGFTFSSYGMHWVRQAPGKGLEWVAVIYYEGSNDYYVDSVKGRFTISRDNSKNTLYLQMNSLRAEDTAVYYCARRDWNSFDYWGQGTLVTVSS VL: DIVMTQSPLSLSVTPGEPASISCRSSQNLLNRNGFNYLDWYLQKPGQSPQLLIYLGSNRASGVPDRFSGSGSGTDFTLKISRVEVEDVGVYYCMQAIQTPYTFGQGTKLEIK show?
Result: 4850
